# TARGET_UNDER_TEST: Serine/threonine-protein kinase/endoribonuclease IRE1 (Homo sapiens, UniProt O75460)
# Sequence (O75460 whole entry): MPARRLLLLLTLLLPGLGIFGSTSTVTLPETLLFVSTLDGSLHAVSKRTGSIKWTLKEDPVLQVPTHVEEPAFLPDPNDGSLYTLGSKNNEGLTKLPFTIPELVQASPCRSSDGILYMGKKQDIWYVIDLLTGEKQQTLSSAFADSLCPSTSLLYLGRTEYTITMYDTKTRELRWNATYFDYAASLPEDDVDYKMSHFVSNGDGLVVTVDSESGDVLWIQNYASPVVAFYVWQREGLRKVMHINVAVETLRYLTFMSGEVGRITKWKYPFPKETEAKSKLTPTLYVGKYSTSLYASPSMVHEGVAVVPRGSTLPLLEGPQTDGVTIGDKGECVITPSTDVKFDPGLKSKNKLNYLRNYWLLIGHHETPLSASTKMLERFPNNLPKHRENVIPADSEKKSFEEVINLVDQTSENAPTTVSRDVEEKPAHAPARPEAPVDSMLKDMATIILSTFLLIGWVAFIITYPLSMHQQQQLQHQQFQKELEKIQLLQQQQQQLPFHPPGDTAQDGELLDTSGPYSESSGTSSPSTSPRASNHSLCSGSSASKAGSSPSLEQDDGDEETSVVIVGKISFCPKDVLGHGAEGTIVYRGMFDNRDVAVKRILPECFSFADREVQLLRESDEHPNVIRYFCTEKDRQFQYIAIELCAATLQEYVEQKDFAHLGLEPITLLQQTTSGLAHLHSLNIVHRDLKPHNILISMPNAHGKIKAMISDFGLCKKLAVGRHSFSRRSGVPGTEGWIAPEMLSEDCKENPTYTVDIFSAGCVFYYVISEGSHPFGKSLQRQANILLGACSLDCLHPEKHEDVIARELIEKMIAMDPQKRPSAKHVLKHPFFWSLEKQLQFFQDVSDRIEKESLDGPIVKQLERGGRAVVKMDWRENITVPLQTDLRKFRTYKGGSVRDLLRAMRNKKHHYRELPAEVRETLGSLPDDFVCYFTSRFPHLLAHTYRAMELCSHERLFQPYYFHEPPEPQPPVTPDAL
OBSERVABLE: IC50

COc1nc(NS(=O)(=O)c2ccccc2Cl)ccc1/C=C/c1cnc(NC2CCC(N3CCOCC3)CC2)nc1 (configuration not stated); < 1 nM
CNC1CCC(Nc2ncc(/C=C/c3cc(F)c(NS(=O)(=O)c4ccccc4Cl)nc3OC)cn2)CC1 (configuration not stated); < 1 nM
COc1cc(NS(=O)(=O)c2cnccc2Cl)ccc1/C=C/c1cnc(NC2CCC(N(C)C)CC2)nc1 (configuration not stated); < 1 nM
Cc1nc(NS(=O)(=O)c2ccccc2Cl)c(F)cc1/C=C/c1cnc(NC2CCC(N)CC2)nc1 (configuration not stated); < 1 nM
CN(C)C1CCC(Nc2ncc(/C=C/c3ccc(NS(=O)(=O)c4ccccc4Cl)nn3)cn2)CC1 (configuration not stated); < 1 nM

Exercise: Please provide the recorded IC50 for COc1cc(NS(=O)(=O)c2ccccc2Cl)c(F)cc1/C=C/c1cnc(NC2CCC(N(C)C)CC2)nc1 (configuration not stated) , tested on Serine/threonine-protein kinase/endoribonuclease IRE1 (Homo sapiens, UniProt O75460).
Key: < 1 nM

Exercise: Fill in the recorded IC50 for this compound, with Serine/threonine-protein kinase/endoribonuclease IRE1 (Homo sapiens, UniProt O75460) as test system: NC1CCC(Nc2ncc(/C=C/c3ccc(NS(=O)(=O)c4ccccc4Cl)c(F)c3)cn2)CC1 (configuration not stated)
Key: < 1 nM
